Reference for the values: ChEMBL document CHEMBL1949532

# Test Name: Toxicity in human erythrocytes assessed as hemolysis at 50 uM after 30 mins by spectrophotometry
# Format: cell-based, Erythrocyte
# Measurement Conditions: read-out: Activity
Assay Endpoint: hemolysis at 0.5 h, 50 µM (%)
Give bare numbers, in %.

CCCCCCCCNC(=O)[C@H](Cc1ccccc1)NC(=O)[C@H](CCCCNC(=O)[C@H](CCCCN)NC(=O)OCc1ccccc1)NC(=O)[C@H](CCCCN)NC(=O)OCc1ccccc1 :: 10

// moving on: another record for hemolysis at 0.5 h, 50 µM
Task: Check the records and state hemolysis at 0.5 h, 50 µM for `CCCCCCCCCCCCNC(=O)[C@H](Cc1ccccc1)NC(=O)[C@H](CCCCNC(=O)[C@H](CCCCN)NC(=O)OCc1ccccc1Cl)NC(=O)[C@H](CCCCN)NC(=O)OCc1ccccc1Cl`
Result: 10

----------
# Test Name: Toxicity in human erythrocytes assessed as hemolysis at 100 uM after 30 mins by spectrophotometry
# Assay type: cell-based, Erythrocyte
# Measurement Conditions: read-out: Activity
Assay Endpoint: hemolysis at 0.5 h, 100 µM
Quote the value and follow it with the unit of measurement.

Consider the following illustrative entries.
CCCCCCCCNC(=O)[C@H](Cc1ccccc1)NC(=O)[C@H](CCCCNC(=O)[C@@H](N)CCCCNC(=O)OCc1ccccc1Cl)NC(=O)[C@@H](N)CCCCNC(=O)OCc1ccccc1Cl :: 1%
CCCCCCCCCCCCNC(=O)[C@H](Cc1ccccc1)NC(=O)[C@H](CCCCNC(=O)[C@@H](N)CCCCNC(=O)OCc1ccccc1Cl)NC(=O)[C@@H](N)CCCCNC(=O)OCc1ccccc1Cl.Cl.Cl :: 10%
CCCCCCCCNC(=O)[C@H](Cc1ccccc1)NC(=O)[C@H](CCCCNC(=O)[C@H](CCCCN)NC(=O)OCc1ccccc1Cl)NC(=O)[C@H](CCCCN)NC(=O)OCc1ccccc1Cl :: 10%

// moving on: another record for hemolysis at 0.5 h, 100 µM
Task: Check the records and state hemolysis at 0.5 h, 100 µM for `CCCCCCCCCCCCNC(=O)[C@H](Cc1ccccc1)NC(=O)[C@H](CCCCNC(=O)[C@H](CCCCN)NC(=O)OCc1ccccc1Cl)NC(=O)[C@H](CCCCN)NC(=O)OCc1ccccc1Cl`
Result: 13%

----------
# System: Klebsiella pneumoniae subsp. pneumoniae
# Test Name: Antibacterial activity against Klebsiella pneumoniae subsp. pneumoniae ATCC 13882 after 18 to 24 hrs by serial broth microdilution susceptibility test
# Format: functional
Residues, ends and D or L forms follow the SMILES beside them. Groups on a side chain read outwards from the residue. *: point of attachment. Cbz = O=C(OCc1ccccc1)*
Assay Endpoint: MIC

NCCCC[C@H](NC(=O)OCc1ccccc1)C(=O)NCCCC[C@H](NC(=O)[C@H](CCCCN)NC(=O)OCc1ccccc1)C(=O)N[C@@H](Cc1ccccc1)C(N)=O (Cbz-Lys-Lys([Lys-Cbz])-Phe-NH2) :: > 144 µM
CCCCCCCCCCCCNC(=O)[C@H](Cc1ccccc1)NC(=O)[C@H](CCCCNC(=O)[C@H](CCCCN)NC(=O)OCc1ccccc1Cl)NC(=O)[C@H](CCCCN)NC(=O)OCc1ccccc1Cl :: > 256 µM
CCCCCCCCNC(=O)[C@H](Cc1ccccc1)NC(=O)[C@H](CCCCNC(=O)[C@H](CCCCN)NC(=O)OCc1ccccc1Cl)NC(=O)[C@H](CCCCN)NC(=O)OCc1ccccc1Cl :: 128 µM
CCCCCCCCNC(=O)[C@H](Cc1ccccc1)NC(=O)[C@H](CCCCNC(=O)[C@@H](N)CCCCN)NC(=O)[C@@H](N)CCCCN :: > 256 µM

// moving on: another record for MIC
Task: Check the records and state MIC for `CCCCCCCCCCCCNC(=O)[C@H](Cc1ccccc1)NC(=O)[C@H](CCCCNC(=O)[C@@H](N)CCCCN)NC(=O)[C@@H](N)CCCCN.Cl.Cl.Cl.Cl`
Result: > 256 µM

----------
# Test Name: Toxicity in human erythrocytes assessed as hemolysis at 300 uM after 30 mins by spectrophotometry
# Assay type: cell-based, Erythrocyte
# Measurement Conditions: read-out: Activity
Assay Endpoint: hemolysis at 0.5 h, 300 µM (%)
Numbers only, in %.

CCCCCCCCNC(=O)[C@H](Cc1ccccc1)NC(=O)[C@H](CCCCNC(=O)[C@@H](N)CCCCN)NC(=O)[C@@H](N)CCCCN :: 10

// moving on: another record for hemolysis at 0.5 h, 300 µM
Task: Check the records and state hemolysis at 0.5 h, 300 µM for `CCCCCCCCNC(=O)[C@H](Cc1ccccc1)NC(=O)[C@H](CCCCNC(=O)[C@@H](N)CCCCNC(=O)OCc1ccccc1Cl)NC(=O)[C@@H](N)CCCCNC(=O)OCc1ccccc1Cl`
Result: 10

----------
# Tested on: Klebsiella pneumoniae subsp. pneumoniae
# Test Name: Antibacterial activity against Klebsiella pneumoniae subsp. pneumoniae ATCC 13882 after 18 to 24 hrs by serial broth microdilution susceptibility test
# Type: functional
Starred links: 1 amine or outer side, 2 acyl side, 3 side chain; linkers in the order of their positions; H or OH if unused. Residues, ends and D or L forms follow the SMILES beside them. Groups on a side chain read outwards from the residue. *: point of attachment. εLys = N[C@@H](CCCCN[*:1])C(=O)[*:2]; ClZ = O=C(OCc1ccccc1Cl)*
Response field label takes 1.0 when MIC is strictly below 100 µM and 0.0 in all other cases.

Some entries whose results are on file:
CCCCCCCCNC(=O)[C@H](Cc1ccccc1)NC(=O)[C@H](CCCCNC(=O)[C@@H](N)CCCCNC(=O)OCc1ccccc1Cl)NC(=O)[C@@H](N)CCCCNC(=O)OCc1ccccc1Cl :: 0.0
NC(=O)[C@H](Cc1ccccc1)NC(=O)[C@H](CCCCNC(=O)[C@@H](N)CCCCNC(=O)OCc1ccccc1Cl)NC(=O)[C@@H](N)CCCCNC(=O)OCc1ccccc1Cl (H-Lys(ClZ)-Lys([εLys-ClZ])-Phe-NH2) :: 1.0
CCCCCCCCCCCCNC(=O)[C@H](Cc1ccccc1)NC(=O)[C@H](CCCCNC(=O)[C@H](CCCCN)NC(=O)OCc1ccccc1)NC(=O)[C@H](CCCCN)NC(=O)OCc1ccccc1.Cl.Cl :: 0.0
CCCCCCCCCCCCNC(=O)[C@H](Cc1ccccc1)NC(=O)[C@H](CCCCNC(=O)[C@@H](N)CCCCNC(=O)OCc1ccccc1Cl)NC(=O)[C@@H](N)CCCCNC(=O)OCc1ccccc1Cl.Cl.Cl :: 0.0

Field: next molecule
Task: State whether 100 µM exceeds MIC recorded for `CCCCCCCCNC(=O)[C@H](Cc1ccccc1)NC(=O)[C@H](CCCCNC(=O)[C@H](CCCCN)NC(=O)OCc1ccccc1)NC(=O)[C@H](CCCCN)NC(=O)OCc1ccccc1` .
Result: 0.0

----------
Exercise: state measured MIC for each of the compounds provided.
# System: Candida albicans
# Test Name: Antifungal activity against Candida albicans ATCC 90028 after 24 to 48 hrs by serial broth microdilution susceptibility test
# Format: functional
Starred links: 1 amine or outer side, 2 acyl side, 3 side chain; linkers in the order of their positions; H or OH if unused. Positions of bridges follow the written chain, without caps; N, C: chain ends. Non-standard residues stand in square brackets, D forms with d. Residues, ends and D or L forms follow the SMILES beside them. Groups on a side chain read outwards from the residue. *: point of attachment. Orn(4R-OH,5R-OH) = O=C([C@H](C[C@@H](O)[C@@H](O)N[*:3])N[*:1])[*:2]; hTyr(3S-OH,4S-OH) = N[C@H](C(=O)O)[C@H](O)[C@@H](O)c1ccc(O)cc1; Pro(3S-OH,4S-Me) = C[C@H]1CN[C@H](C(=O)O)[C@H]1O; εLys = N[C@@H](CCCCN[*:1])C(=O)[*:2]; Palmitoyl = CCCCCCCCCCCCCCCC(=O)*; Hyp = O=C(O)[C@@H]1C[C@@H](O)CN1; ClZ = O=C(OCc1ccccc1Cl)*
Answers are plain numbers, in µM.

CCCCCCCCNC(=O)[C@H](Cc1ccccc1)NC(=O)[C@H](CCCCNC(=O)[C@H](CCCCN)NC(=O)OCc1ccccc1Cl)NC(=O)[C@H](CCCCN)NC(=O)OCc1ccccc1Cl :: 32

Count: 8. Required value per item: MIC.
1. CCCCCCCCCCCCNC(=O)[C@H](Cc1ccccc1)NC(=O)[C@H](CCCCNC(=O)[C@@H](N)CCCCNC(=O)OCc1ccccc1Cl)NC(=O)[C@@H](N)CCCCNC(=O)OCc1ccccc1Cl.Cl.Cl
2. CCCCCCCCCCCCNC(=O)[C@H](Cc1ccccc1)NC(=O)[C@H](CCCCNC(=O)[C@H](CCCCN)NC(=O)OCc1ccccc1)NC(=O)[C@H](CCCCN)NC(=O)OCc1ccccc1.Cl.Cl
3. CCCCCCCCNC(=O)[C@H](Cc1ccccc1)NC(=O)[C@H](CCCCNC(=O)[C@@H](N)CCCCNC(=O)OCc1ccccc1Cl)NC(=O)[C@@H](N)CCCCNC(=O)OCc1ccccc1Cl
4. OC(Cn1cncn1)(Cn1cncn1)c1ccc(F)cc1F [FLUCONAZOLE]
5. CCCCCCCCCCCCNC(=O)[C@H](Cc1ccccc1)NC(=O)[C@H](CCCCNC(=O)[C@H](CCCCN)NC(=O)OCc1ccccc1Cl)NC(=O)[C@H](CCCCN)NC(=O)OCc1ccccc1Cl
6. CCCCCCCCCCCCNC(=O)[C@H](Cc1ccccc1)NC(=O)[C@H](CCCCNC(=O)[C@@H](N)CCCCN)NC(=O)[C@@H](N)CCCCN.Cl.Cl.Cl.Cl
7. CCCCCCCCNC(=O)[C@H](Cc1ccccc1)NC(=O)[C@H](CCCCNC(=O)[C@@H](N)CCCCN)NC(=O)[C@@H](N)CCCCN
8. NC(=O)[C@H](Cc1ccccc1)NC(=O)[C@H](CCCCNC(=O)[C@@H](N)CCCCNC(=O)OCc1ccccc1Cl)NC(=O)[C@@H](N)CCCCNC(=O)OCc1ccccc1Cl (H-Lys(ClZ)-Lys([εLys-ClZ])-Phe-NH2)

Result:
1: 7; 2: 8; 3: 60; 4: 13; 5: 8; 6: 16; 7: 256; 8: 33

Count: 2. Required value per item: MIC.
1. CCCCCCCCNC(=O)[C@H](Cc1ccccc1)NC(=O)[C@H](CCCCNC(=O)[C@H](CCCCN)NC(=O)OCc1ccccc1)NC(=O)[C@H](CCCCN)NC(=O)OCc1ccccc1
2. CCCCCCCCCCCCCCCC(=O)N[C@H]1C[C@@H](O)[C@@H](O)NC(=O)[C@@H]2[C@@H](O)[C@@H](C)CN2C(=O)[C@H]([C@@H](C)O)NC(=O)[C@H]([C@H](O)[C@@H](O)c2ccc(O)cc2)NC(=O)[C@@H]2C[C@@H](O)CN2C(=O)[C@H]([C@@H](C)O)NC1=O [ACULEACIN A] (Palmitoyl-[Orn(4R-OH,5R-OH)]T[Hyp][hTyr(3S-OH,4S-OH)]T[Pro(3S-OH,4S-Me)]; lactam 1-C)

Result:
1. 32
2. 0.5
